# ASSAY NOTES: Intrinsic clearance in human liver microsomes
# Type: ADME, Microsome
ASSAY ENDPOINT: CLint scaled (mL/min/kg)

# annotated cases, reported CLint scaled shown
CC1(OC(=O)N2CCC([C@H](F)CNC(=O)Cc3c(F)ccc(F)c3F)CC2)CC1	42.4
CC1(OC(=O)N2CCC([C@@H](F)CNC(=O)Cc3c(F)ccc(F)c3F)CC2)CC1	63.8
C[C@@H](CNC(=O)Cc1c(F)ccc(F)c1F)C1CCN(C(=O)OC2(C)CC2)CC1	187

I. CC(CNC(=O)Cc1c(F)ccc(F)c1F)C1CCN(C(=O)OC(C)(C)C)CC1 (stereo not drawn)
II. CC(CNC(=O)Cc1ccc(S(C)(=O)=O)cc1)C1CCN(C(=O)OC(C)(C)C)CC1 (stereo not drawn)
Hey, between I and II which has a smaller measured CLint scaled? // return label of chosen record
II
